system: A549/ATCC NSCLC; assay: NCI-60 one-dose screen, 48 h; conditions: 10 µM
This is part of a sample that, as a whole, favours compounds with a hit. Of some 83,000 tested, about 20% had one in any assay. The source made the active and inactive calls. Rule for the calls: active = growth percent below 10; inactive = the rest.
Assign a class; possible classes are active, inactive

Cc1cc(NC(=O)c2ccc(C)c(Nc3nccc(-c4cccnc4)n3)c2)cc(-n2cnc(C)c2)c1 = inactive
CSc1ccc(-c2cc(-c3ccc(NC(=O)CCCN4CCCC4)cc3)nc(-c3ccc(NC(=O)CCCN4CCCC4)cc3)c2)cc1 = inactive

Query :: Look up the recorded call for CNC(=O)c1cn(C2CC2)c2cc(N3CCN(C(=O)c4cc(OC)c(OC)c(OC)c4)CC3)c(F)cc2c1=O in this test.
Result :: inactive

Query :: COc1cc(/C=C/c2cc(/C=C/c3ccc(O)c(OC)c3)n(C(=O)Nc3ccc(C)cc3)n2)ccc1O , same question.
Result :: active

---

tested on: HS 578T breast; assay: NCI-60 one-dose screen, 48 h (100 = growth as untreated, 0 = no growth, -100 = all killed); details: 10 µM
About 83,000 compounds went through this panel and 20% of them were active in at least one assay; those are over-represented in the sample as a whole.
Give measured growth for each item. Keep answers brief.
Give bare numbers, in %.

// solved cases for growth follow
Clc1nc2ccc(Br)cc2cc1-c1nc2ccccc2[nH]1 = 47.8
CSc1nc2c(c(=O)n1C)CN(Cc1ccccc1)C(=O)CN2 = 101
Cc1c(Cl)cccc1NC(=O)CCCl = 104

Count: 3. Required value per item: growth.
1. O=C1/C=C/[C@@H](O)[C@@H]2C[C@@H](O)C[C@H]2/C=C/CCC[C@H](C(F)(F)F)O1
2. CC(=O)COc1ccc(Cl)cc1Cl
3. CCN(CC)CCOc1cccc2c1C(=O)c1ccccc1C2=O

Result ::
1. 38.5
2. 117
3. 90

Count: 3. Required value per item: growth.
1. COc1cc(-c2nn(-c3cccc(NC(=O)NCCNS(=O)(=O)c4ccc(Cl)cc4)c3)cc2-c2ccncc2)ccc1Cl
2. CN(C)c1ncnc2c1nnn2C1OC(CO)C(O)C1O (stereo unspecified)
3. Nc1ccn(Cc2nnc(CCC(=O)c3nc4ccccc4[nH]3)o2)c(=O)n1

Result ::
1: 18.8; 2: 19.8; 3: 81.3

Count: 2. Required value per item: growth.
1. O=S(=O)(Oc1ccc(-c2ccc3sccc3c2)cc1)c1ccccc1
2. CC(=O)Nc1ccc(S(=O)(=O)c2ccnc3cc(Cl)ccc23)cc1

Result ::
1: 108; 2: 85.2

---

system: LOX IMVI melanoma; assay: NCI-60 one-dose screen, 48 h (100 = growth as untreated, 0 = no growth, -100 = all killed); conditions: 10 µM
The panel holds about 83,000 compounds, 20% with a hit somewhere; the sample as a whole holds those more often.
ENDPOINT: growth (%)
Give bare numbers, in %.

// solved cases for growth follow
CCOC(=O)/C(=C(\C)N)C1CC(=O)NC1=O (stereo unspecified) = 95.7
COc1ccc(C(=O)N2C=Cc3ccccc3C2C#N)cc1 (stereo unspecified) = 95.4
Cc1cc(CC(C)CC(C)(C)C)n(O)c(=O)c1 (stereo unspecified) (tested in a mixture with another compound) = 7.96
CCOC(=O)c1cc(C(=O)c2cc(OC)cc(OC)c2)n2ncc3ccccc3c12 = 9.99

Count: 2. Required value per item: growth.
1. Cc1c2c[n+](C(C)C)ccc2c(C)c2c1[nH]c1ccccc12
2. CC(=O)OC1CC2C(C)(C)CCC[C@]2(C)C2=C1C(O)=C(C(C)C)C(=O)C2=O (stereo partly specified)

Result ::
1: 40.7; 2: -43

---

tested on: SK-OV-3 ovarian; test: NCI-60 one-dose screen, 48 h (100 = growth as untreated, 0 = no growth, -100 = all killed); details: 10 µM
This is part of a sample that, as a whole, favours compounds with a hit. Of some 83,000 tested, about 20% had one in any assay.
Give measured growth for each item. Keep answers brief.
Give bare numbers, in %.

Count: 5. Required value per item: growth.
1. Cc1nn(-c2ccccc2)c2nc(Cl)c(C=O)c(-c3ccccc3)c12
2. CC(=O)Nc1ccc(S(=O)(=O)c2ccnc3cc(Cl)ccc23)cc1
3. C[C@]12CCC3c4ccc(O)cc4C[C@@H](CCCCCCCCCS(=O)CCCC(F)(F)C(F)(F)F)C3C1CC[C@@H]2O (stereo not given in full)
4. NC(CSC(c1ccccc1)(c1ccccc1)c1cccc2ccccc12)C(=O)O (stereo not given)
5. O=C1Cc2cc(CCN3CCN(c4nsc5ccccc45)CC3)c(Cl)cc2N1

Result ::
[116, 88, 103, 106, 121]

---

system: SF-539 CNS; assay: NCI-60 one-dose screen, 48 h (100 = growth as untreated, 0 = no growth, -100 = all killed); settings: 10 µM
About 83,000 compounds went through this panel and 20% of them were active in at least one assay; those are over-represented in the sample as a whole.
Threshold 70%: growth strictly smaller gives YES, otherwise NO.

Solved entries (count: 5):
COC(=O)C1(O)NC(=C(C#N)C#N)C(C#N)=C1C(=O)c1ccc(OC)c(OC)c1 (stereo not given) = NO
COc1ccc([C@H]2[C@H](C(=O)Nc3cccnc3)c3ccccc3C(=O)N2c2ccccc2)cc1 = NO
CCOC(=O)N/N=C/c1ccc(OC)c(OC)c1 = NO
COc1ccc2nc3cc(Cl)ccc3c(Nc3cc(CN4CCCC4)c(O)c(CN4CCCC4)c3)c2n1 = YES
CN(C)CCOc1cccc(NC2=C(Cl)C(=O)C(Nc3cccc(OCCN(C)C)c3)=C(Cl)C2=O)c1 = YES

Now consider a different compound.
Query :: Please determine if CNC(=O)c1cn2c3c(c(N4CCN(C)CC4)c(F)cc3c1=O)OC[C@@H]2C is below 70% in terms of growth.
Result :: NO

---

Give measured growth for each item. Keep answers brief.
system: UACC-62 melanoma; assay: NCI-60 one-dose screen, 48 h (100 = growth as untreated, 0 = no growth, -100 = all killed); details: 10 µM
Compounds without any hit were thinned out: in the full panel of roughly 83,000, 20% have a hit. The source made the active and inactive calls. The calls were made as follows: active = growth percent below 10; inactive = the rest.

// solved cases for growth follow
CCC(C)[C@H](NC(C)=O)C(=O)N[C@@H](CCCNC(=N)N)C(=O)N[C@@H](CCCCN)C(=O)N[C@@H](CC1CCC(O)CC1)C(=O)NC(C(=O)N[C@@H](CCSC)C(=O)N[C@@H](CCCNC(=N)N)C(=O)N[C@@]1(C)CCC/C=C\CCC[C@@](C)(C(=O)NC(C(=O)N[C@@H](CCC(=O)O)C(=O)N[C@@H](CC(C)C)C(=O)N[C@H](C(=O)N[C@@H](CCC(=O)O)C(N)=O)C(C)C)[C@@H](C)O)NC(=O)[C@H](CCC(N)=O)NC(=O)[C@H](CC(C)C)NC(=O)[C@H](CC(C)C)NC1=O)[C@@H](C)O (stereo not given in full) = 99.6% (inactive)
CCOc1ccccc1/C=N\N=C(\N)N/N=C/c1ccccc1OCC = 30.9% (inactive)
CCc1c2c(nc3ccc(OC(=O)N4CCC(N5CCCCC5)CC4)cc13)-c1cc3c(c(=O)n1C2)COC(=O)[C@]3(O)CC = 17.9% (inactive)
O=[N+]([O-])c1ccc(/C(=C/c2ccccc2)[n+]2ccccc2)cc1 = 100% (inactive)
Cc1c[nH]c(=O)n(Cc2nnc(CCC(=O)c3nc4ccccc4[nH]3)o2)c1=O = 41% (inactive)

Count: 8. Required value per item: growth.
1. c1ccc(CCCCc2ccc3ccccc3n2)cc1
2. C=CCn1c(SCC(=O)Nc2ccc(C(=O)/C=C/c3cc(OC)c(OC)c(OC)c3)cc2)nnc1-c1cc(-c2ccc(Cl)cc2)nc2ccccc12
3. COC(=O)c1c[nH]c2cc(OC(C)C)c(OC(C)C)cc2c1=O
4. CC(=O)C1N=NCC1c1ccccc1 (stereo not given)
5. CCCc1cn(CC(=O)Nc2nc3ccccc3s2)nn1
6. CC(C1=C(CN(C(=O)Cc2cn(-c3ccccc3)nc2-c2ccc(Cl)cc2)C(C)C)Cc2ccccc21)c1ccccn1 (stereo not given)
7. O=[N+]([O-])c1cccc(/C=N/NC(=S)NC23CC4CC(CC(C4)C2)C3)c1
8. CC(C)(C)c1ccc(S(=O)(=O)N[C@H]2CC[C@H]3[C@@H]4CCc5cc(O)c([N+](=O)[O-])cc5[C@H]4CC[C@]23C)cc1

Result ::
1. 102% (inactive)
2. 84.2% (inactive)
3. 106% (inactive)
4. 83.8% (inactive)
5. 98.1% (inactive)
6. 63.6% (inactive)
7. 84.3% (inactive)
8. 84.2% (inactive)

Count: 2. Required value per item: growth.
1. C[C@]12CC[C@@H]3c4ccc(O)cc4CC[C@H]3[C@@H]1CC[C@@H]2NS(=O)(=O)c1ccc(C(F)(F)F)cc1
2. CCn1c(SC/C(=N/O)c2ccccc2)nnc1-c1ccccc1

Result ::
1. 73.5% (inactive)
2. 86.2% (inactive)
